Measurement record for cloned human κ opioid receptor (Homo sapiens); quantity recorded: log10 of Ki.
Where a name gives a salt, the structure may show the parent alone.
Recorded Ki (log10, nM)

Reported log10 of Ki for CS(=O)(=O)NCc1ccc(CC(=O)N2CCCC[C@H]2CN2CC[C@H](O)C2)cc1.O=C(O)C(F)(F)F [Example 29, trifluoroacetate] : what is it?
0.32

What would you report for CN(C(=O)Cc1ccc(CNS(=O)(=O)c2cccs2)cc1)[C@H](CN1CC[C@H](O)C1)c1ccccc1 [Example 22, hydrochloride] ?
0.46

Again, but for Cc1noc(C)c1S(=O)(=O)NCc1ccc(CC(=O)N(C)[C@H](CN2CC[C@H](O)C2)c2ccccc2)cc1 [Example 23, hydrochloride]
1.40

Follow-up item: CN(C(=O)Cc1ccc(CN(C)S(C)(=O)=O)cc1)[C@H](CN1CC[C@H](O)C1)c1ccccc1.Cl [Example 24, hydrochloride]
1.15

Also check CC(C)[C@@H](CN1CC[C@H](O)C1)N(C)C(=O)Cc1ccc(CNS(C)(=O)=O)cc1.O=C(O)C(F)(F)F [Example 28, trifluoroacetate]
0.79
